Give inhibition at 22.22 µM for every item shown.
Biological target: HIF-PH2 (Homo sapiens, UniProt Q9GZT9)
Construct: made in house; host or cells: insect Hi5 cells
Sequence (Q9GZT9 whole entry, species assumed): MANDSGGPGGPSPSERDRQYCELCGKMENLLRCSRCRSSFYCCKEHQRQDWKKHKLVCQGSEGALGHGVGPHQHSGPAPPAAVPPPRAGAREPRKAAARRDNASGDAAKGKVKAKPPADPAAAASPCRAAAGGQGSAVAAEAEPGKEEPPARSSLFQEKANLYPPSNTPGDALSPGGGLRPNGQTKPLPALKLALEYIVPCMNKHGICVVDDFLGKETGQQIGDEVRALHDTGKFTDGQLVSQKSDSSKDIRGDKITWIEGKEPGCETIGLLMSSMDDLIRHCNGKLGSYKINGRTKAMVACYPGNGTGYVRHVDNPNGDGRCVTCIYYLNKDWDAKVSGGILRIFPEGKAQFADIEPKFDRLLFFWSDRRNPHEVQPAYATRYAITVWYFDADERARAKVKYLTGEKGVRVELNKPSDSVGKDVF
Assay: HIF-PH assay (14CO2 capture, peptide-dependent turnover)
Type: biochemical
Conditions: compound concentration 22.22 μM
Give the number; % is assumed, so skip it.

# input molecule: "N#Cc1nc(C(=O)NCC(=O)O)c(O)c2c(-c3ccc(F)cc3)nsc12" ; wanted: its inhibition at 22.22 µM
98.3

# input molecule: "Cc1nsc2c(-c3cnccn3)nc(C(=O)NCC(=O)O)c(O)c12" ; wanted: its inhibition at 22.22 µM
70

# input molecule: "O=C(O)CNC(=O)c1nc(Cc2ccccc2)c2snc(-c3ccc(Cl)cc3)c2c1O" ; wanted: its inhibition at 22.22 µM
97

# input molecule: "N#Cc1ccc(-c2nc(C(=O)NCC(=O)O)c(O)c3c(-c4ccc(F)cc4)nsc23)cc1" ; wanted: its inhibition at 22.22 µM
91.5

# input molecule: "Cc1nc(C(=O)NCC(=O)O)c(O)c2c(-c3ccccc3)nsc12" ; wanted: its inhibition at 22.22 µM
91

---

Target: HIF-PH2 (Homo sapiens)
Construct: made in house; host or cells: insect Hi5 cells
Test: HIF-PH assay (14CO2 capture, peptide-dependent turnover)
Assay type: biochemical
Settings: compound concentration 200 μM
Give inhibition at 200 µM for every item shown.
Give the number; % is assumed, so skip it.

Please state recorded inhibition at 200 µM (tested on HIF-PH2 (Homo sapiens)) of "O=C(O)CNC(=O)c1nc(-c2ccc(Oc3ccccc3)cc2)c2snc(-c3ccccc3F)c2c1O"
100

Please state recorded inhibition at 200 µM (tested on HIF-PH2 (Homo sapiens)) of "O=C(O)CNC(=O)c1nc(-c2ccccc2)c2snc(-c3ccc(Cl)cc3)c2c1O"
98.7

Please state recorded inhibition at 200 µM (tested on HIF-PH2 (Homo sapiens)) of "O=C(O)CNC(=O)c1ncc2snc(-c3ccc(F)cc3)c2c1O"
98.9

Please state recorded inhibition at 200 µM (tested on HIF-PH2 (Homo sapiens)) of "Cc1nc(C(=O)NCC(=O)O)c(O)c2c(-c3ccc(Cl)cc3)nsc12"
99.5

Please state recorded inhibition at 200 µM (tested on HIF-PH2 (Homo sapiens)) of "O=C(O)CNC(=O)c1nc(-c2ccccc2)c2snc(-c3ccc(F)cc3)c2c1O"
98.2

Please state recorded inhibition at 200 µM (tested on HIF-PH2 (Homo sapiens)) of "O=C(O)CNC(=O)c1nc(-c2cccnc2)c2snc(-c3ccccc3)c2c1O"
100

Please state recorded inhibition at 200 µM (tested on HIF-PH2 (Homo sapiens)) of "O=C(O)CNC(=O)c1ncc2snc(-c3ccccc3F)c2c1O"
100

Please state recorded inhibition at 200 µM (tested on HIF-PH2 (Homo sapiens)) of "C#Cc1nc(C(=O)NCC(=O)O)c(O)c2c(-c3ccc(F)cc3)nsc12"
98.3

Please state recorded inhibition at 200 µM (tested on HIF-PH2 (Homo sapiens)) of "O=C(O)CNC(=O)c1nc(-c2ccc(F)cc2)c2snc(-c3ccccc3)c2c1O"
98

---

Target: HIF-PH2 (Homo sapiens)
Construct: made in house; host or cells: insect Hi5 cells
Assay: HIF-PH assay (14CO2 capture, peptide-dependent turnover)
Assay type: biochemical
Conditions: compound concentration 22.22 μM
Give inhibition at 22.22 µM for every item shown.
Give the number; % is assumed, so skip it.

# input compound: "O=C(O)CNC(=O)c1nc(-c2ccccc2)c2c(Cn3ccc4ccccc43)nsc2c1O" ; wanted: its inhibition at 22.22 µM
100

# input compound: "O=C(O)CNC(=O)c1nc(-c2cn(Cc3ccccc3)nn2)c2snc(-c3ccc(Cl)cc3)c2c1O" ; wanted: its inhibition at 22.22 µM
100

# input compound: "O=C(O)CNC(=O)c1nc(-c2cccc3ccccc23)c2snc(-c3ccc(Cl)cc3)c2c1O" ; wanted: its inhibition at 22.22 µM
96

# input compound: "O=C(O)CNC(=O)c1nc(-c2ccccc2)c2snc(-c3ccccc3)c2c1O" ; wanted: its inhibition at 22.22 µM
97
